# TEST_SYSTEM: Interleukin-23 receptor (Homo sapiens, UniProt Q5VWK5)
# ASSAY_PROTOCOL: Inhibition of interleukin-23 binding to human interleukin-23 receptor incubated for 2 hrs by competitive binding ELISA
PROPERTY_LABEL: IC50

Looking up Ac-QTWQCYWRK(Ac)NG-NH2 , I see its IC50 listed as < 0.5 µM

---

pIC50 overview
# ASSAY_PROTOCOL: Inhibition of interleukin-23 binding to rat interleukin-23 receptor incubated for 2 hrs by competitive binding ELISA
Scale explanation: pIC50 corresponds to minus log10 of a concentration expressed in moles per litre.

Observe how each entry below is paired with its result.
{"SMILES_CODE": "CC(=O)N[C@@H](CS)C(=O)N[C@@H](CCCNC(=N)N)C(=O)N[C@H](C(=O)N[C@@H](Cc1c[nH]c2ccccc12)C(=O)N[C@@H](CCC(N)=O)C(=O)N[C@@H](CS)C(=O)N[C@@H](Cc1ccc(O)cc1)C(=O)N[C@@H](Cc1c[nH]c2ccccc12)C(=O)N[C@@H](CCCNC(=N)N)C(=O)N[C@@H](CCC(=O)O)C(=O)N[C@@H](Cc1ccc(O)cc1)C(=O)NCC(=O)N[C@@H](C)C(=O)N[C@H](CCCCN)C(N)=O)[C@@H](C)O", "RECORDED_RESULT": 7.10}
{"SMILES_CODE": "CC(=O)N[C@@H](CS)C(=O)N[C@@H](CCC(N)=O)C(=O)N[C@H](C(=O)N[C@@H](Cc1c[nH]c2ccccc12)C(=O)N[C@@H](CCC(N)=O)C(=O)N[C@@H](CS)C(=O)N[C@@H](Cc1ccc2ccccc2c1)C(=O)N[C@@H](Cc1c[nH]c2ccccc12)C(=O)N[C@@H](CCC(C)C)C(=O)N[C@@H](CCC(=O)O)C(=O)N[C@@H](CC(N)=O)C(=O)NCC(N)=O)[C@@H](C)O", "RECORDED_RESULT": 7.14}
{"SMILES_CODE": "CC(=O)N[C@@H](CS)C(=O)N(C)[C@@H](CCC(N)=O)C(=O)N[C@H](C(=O)N[C@@H](Cc1c[nH]c2ccccc12)C(=O)N[C@@H](CCC(N)=O)C(=O)N[C@@H](CS)C(=O)N[C@@H](Cc1ccc(O)cc1)C(=O)N[C@@H](Cc1c[nH]c2ccccc12)C(=O)N[C@@H](CCCNC(=N)N)C(=O)N[C@H](C(=O)N[C@@H](Cc1ccccc1)C(=O)NCC(=O)NCCC(=O)N[C@H](CCCCN)C(N)=O)C(C)C)[C@@H](C)O", "RECORDED_RESULT": 7.07}

get_value(item= CC(=O)N[C@@H](CS)C(=O)N[C@@H](CCC(N)=O)C(=O)N[C@H](C(=O)N[C@@H](Cc1c[nH]c2ccccc12)C(=O)N[C@@H](CCC(N)=O)C(=O)N[C@@H](CS)C(=O)N[C@@H](Cc1ccc(O)cc1)C(=O)N[C@@H](Cc1c[nH]c2ccccc12)C(=O)N[C@@H](CCC(C)C)C(=O)N[C@@H](CCC(=O)O)C(=O)N[C@@H](CC(N)=O)C(=O)NCC(=O)NCC(N)=O)[C@@H](C)O , readout=pIC50) returns 6.85

Documented pIC50 of CC(=O)N[C@@H](CS)C(=O)N[C@@H](CCC(N)=O)C(=O)N[C@H](C(=O)N[C@@H](Cc1c[nH]c2ccccc12)C(=O)N[C@@H](CCC(N)=O)C(=O)N[C@@H](CS)C(=O)N[C@@H](Cc1ccc(O)cc1)C(=O)N[C@@H](Cc1c[nH]c2ccccc12)C(=O)N[C@@](C)(CC(C)C)C(=O)N[C@@H](CCC(=O)O)C(=O)N[C@@H](CC(N)=O)C(=O)NCC(N)=O)[C@@H](C)O : 7.57

---

The reader will find reported IC50 values listed item by item below.
# TEST_SYSTEM: Interleukin-23 receptor (Homo sapiens, UniProt Q5VWK5)
# Sequence (Q5VWK5 whole entry): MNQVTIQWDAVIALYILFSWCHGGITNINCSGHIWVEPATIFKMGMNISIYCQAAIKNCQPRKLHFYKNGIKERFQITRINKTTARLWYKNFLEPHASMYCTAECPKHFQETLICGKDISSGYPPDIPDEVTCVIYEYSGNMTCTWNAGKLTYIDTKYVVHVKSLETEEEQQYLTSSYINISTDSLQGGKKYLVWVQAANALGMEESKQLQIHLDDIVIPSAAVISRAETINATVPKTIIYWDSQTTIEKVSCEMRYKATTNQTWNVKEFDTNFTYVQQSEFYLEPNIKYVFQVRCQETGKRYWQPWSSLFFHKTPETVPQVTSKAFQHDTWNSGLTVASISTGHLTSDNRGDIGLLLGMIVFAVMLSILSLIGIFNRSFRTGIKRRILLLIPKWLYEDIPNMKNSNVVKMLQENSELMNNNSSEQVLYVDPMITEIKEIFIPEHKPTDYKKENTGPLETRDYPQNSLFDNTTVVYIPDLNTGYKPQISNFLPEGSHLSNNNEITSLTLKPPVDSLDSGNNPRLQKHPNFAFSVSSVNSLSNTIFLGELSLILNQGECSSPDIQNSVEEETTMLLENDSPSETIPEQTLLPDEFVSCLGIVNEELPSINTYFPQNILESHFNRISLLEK
# ASSAY_PROTOCOL: Inhibition of interleukin-23 binding to human interleukin-23 receptor incubated for 2 hrs by competitive binding ELISA
*1 amine or outer side, *2 acyl side, *3 side chain or, on linkers, in order; H or OH if unused. Where a SMILES comes first, the peptide text is derived from it. Bridges are numbered along the chain shown (N, C = ends). [ ]: non-standard residue; d: D form. Abu(4-yl) = O=C([C@H](CC[*:3])N[*:1])[*:2]; 2Nal = N[C@@H](Cc1ccc2ccccc2c1)C(=O)O; AEF = NCCOc1ccc(C[C@H](N)C(=O)O)cc1; αMeK = C[C@](N)(CCCCN)C(=O)O

{"COMPOUND": "CC(C)[C@H](NC(=O)C[C@H](Cc1c[nH]c2ccccc12)NC(=O)[C@H](CC(=O)O)NC(=O)[C@H](C)NC(=O)[C@@H](N)CS)C(=O)N[C@@H](CS)C(=O)N[C@@H](Cc1ccc(O)cc1)C(=O)N[C@@H](Cc1c[nH]c2ccccc12)C(=O)N[C@@H](Cc1cnc[nH]1)C(=O)N[C@H](C(=O)N[C@@H](Cc1ccccc1)C(=O)NCC(N)=O)[C@@H](C)O", "RECORDED_RESULT": "> 1000 nM"}

Item: CC(=O)N[C@@H](CS)C(=O)N[C@@H](CCC(N)=O)C(=O)N[C@H](C(=O)N[C@@H](Cc1c[nH]c2ccccc12)C(=O)N[C@@H](CCC(N)=O)C(=O)N[C@@H](CS)C(=O)N[C@@H](Cc1ccc(O)cc1)C(=O)N[C@H](CC(=O)N[C@@H](CCCNC(=N)N)C(=O)N[C@H](C(=O)N[C@@H](CC(N)=O)C(=O)NCC(=O)NCCOCC(=O)N[C@H](CCCCN)C(N)=O)C(C)C)Cc1ccc(F)cc1)[C@@H](C)O | IC50: > 30000 nM

Reported IC50 for CC(=O)N[C@H]1CCSC[C@@H](C(=O)N[C@@H](Cc2ccc(OCCN)cc2)C(=O)N[C@@H](Cc2ccc3ccccc3c2)C(=O)N[C@@](C)(CCCCN)C(=O)N[C@@H](CC(N)=O)C(=O)N[C@@H](CC(N)=O)C(=O)NCC(N)=O)NC(=O)[C@H](CCC(N)=O)NC(=O)[C@H](Cc2c[nH]c3ccccc23)NC(=O)[C@H]([C@@H](C)O)NC(=O)[C@H](CCC(N)=O)NC1=O (Ac-[Abu(4-yl)]QTWQC[AEF][2Nal][αMeK]NNG-NH2; thioether 1-6) was < 10 nM

The compound listed as N=C(N)NCCC[C@H](NC(=O)[C@H](Cc1cnc[nH]1)NC(=O)[C@H](Cc1c[nH]c2ccccc12)NC(=O)[C@H](Cc1ccc(O)cc1)NC(=O)[C@H](CS)NC(=O)[C@H](CCC(=O)O)NC(=O)[C@H](Cc1c[nH]c2ccccc12)NC(=O)[C@H](CC(N)=O)NC(=O)[C@@H]1CCCN1C(=O)[C@@H](N)CS)C(=O)N[C@@H](Cc1ccccc1)C(=O)NCC(N)=O (H-CPNWECYWHRFG-NH2) shows IC50 equal to 500 to 1000 nM

Reported IC50 ( CC(=O)NCC(=O)N[C@@H](CC(=O)O)C(=O)N[C@@H](Cc1cnc[nH]1)C(=O)N[C@@H](CCCCN)C(=O)N[C@@H](CS)C(=O)N[C@@H](CO)C(=O)N[C@@H](CO)C(=O)N[C@@H](Cc1c[nH]c2ccccc12)C(=O)N[C@@H](CCC(=O)O)C(=O)N[C@@H](CS)C(=O)N[C@@H](Cc1ccc(O)cc1)C(=O)N[C@@H](Cc1c[nH]c2ccccc12)C(=O)N[C@@H](Cc1cnc[nH]1)C(=O)N[C@H](C(=O)N[C@@H](Cc1ccccc1)C(=O)NCC(N)=O)[C@@H](C)O (Ac-GDHKCSSWECYWHTFG-NH2) ) = 500 to 1000 nM

// provenance: ChEMBL document CHEMBL4417631
